Values were extracted from patent US20260125400A1.

System Name: TYK2 (Homo sapiens)
Construct: Degradation of TYK2 in cells was quantitatively measured using Meso Scale Discovery (MSD) technology; endogenous in cells; host or cells: OCI-LY10
Sequence (P29597 whole entry): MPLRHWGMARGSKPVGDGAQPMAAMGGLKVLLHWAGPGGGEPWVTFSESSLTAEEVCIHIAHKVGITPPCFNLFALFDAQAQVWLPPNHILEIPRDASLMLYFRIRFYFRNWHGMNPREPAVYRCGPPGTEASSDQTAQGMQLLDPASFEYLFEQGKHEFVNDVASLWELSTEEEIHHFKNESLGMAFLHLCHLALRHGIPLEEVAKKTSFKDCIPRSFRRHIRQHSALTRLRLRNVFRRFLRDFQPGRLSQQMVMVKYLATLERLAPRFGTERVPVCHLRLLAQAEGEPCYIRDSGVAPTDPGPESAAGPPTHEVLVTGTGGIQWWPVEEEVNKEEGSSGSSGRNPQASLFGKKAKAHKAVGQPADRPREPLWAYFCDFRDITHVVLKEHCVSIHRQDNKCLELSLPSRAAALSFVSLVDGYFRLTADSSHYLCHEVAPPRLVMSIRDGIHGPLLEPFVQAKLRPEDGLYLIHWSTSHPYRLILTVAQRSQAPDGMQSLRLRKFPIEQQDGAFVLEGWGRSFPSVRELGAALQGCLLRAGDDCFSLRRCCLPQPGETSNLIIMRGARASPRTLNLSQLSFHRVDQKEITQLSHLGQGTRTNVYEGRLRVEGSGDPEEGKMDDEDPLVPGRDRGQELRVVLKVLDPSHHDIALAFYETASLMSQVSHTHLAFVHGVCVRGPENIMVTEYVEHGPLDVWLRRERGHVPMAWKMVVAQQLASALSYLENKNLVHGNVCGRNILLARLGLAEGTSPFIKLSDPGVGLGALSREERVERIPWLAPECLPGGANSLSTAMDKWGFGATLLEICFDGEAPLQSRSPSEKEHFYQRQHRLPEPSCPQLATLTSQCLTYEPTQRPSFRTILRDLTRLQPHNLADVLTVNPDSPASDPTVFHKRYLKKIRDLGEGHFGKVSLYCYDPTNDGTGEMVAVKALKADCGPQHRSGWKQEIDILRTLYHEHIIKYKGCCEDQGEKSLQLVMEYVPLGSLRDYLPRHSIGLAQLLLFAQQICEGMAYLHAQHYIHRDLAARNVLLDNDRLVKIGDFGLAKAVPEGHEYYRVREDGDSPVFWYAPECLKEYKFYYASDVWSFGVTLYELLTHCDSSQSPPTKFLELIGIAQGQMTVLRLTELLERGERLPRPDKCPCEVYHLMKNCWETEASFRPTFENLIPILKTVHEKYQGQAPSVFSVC
Protocol: TYK2 MSD degradation in OCI-LY10 cells
Type: cell-based
Condition Label: TYK2 degradation in OCI-LY10 cells, 4 to 24 hours incubation
Measured Attribute: TYK2 MSD OCI-LY10 Dmax %

INSERT INTO results (molecule, measured_attribute, result) VALUES
  ('CNc1cc(N2CCc3c(-c4ncc(CN5CC6(CCN(C(=O)c7cc(Cl)c(C)c(N8CCC(=O)NC8=O)c7)CC6(F)F)C5)cc4F)cc(F)cc32)nn2c(C(=O)NC3CCC3OC)cnc12 (centres unmarked) [I-1038]', 'TYK2 MSD OCI-LY10 Dmax %', 'A (A (>90%))'),
  ('CNc1cc(N2CCc3c(CN4CCC(N5CCC6(CCN(C(=O)c7ccc(Cl)c(N8CCC(=O)NC8=O)c7)CC6)CC5)C(F)(F)C4)cccc32)nn2c(C(=O)N[C@@H]3C[C@@H]3F)cnc12 (some centres unmarked) [I-361]', 'TYK2 MSD OCI-LY10 Dmax %', 'B (B (90 to >75%))'),
  ('CNc1cc(N2CCc3c(-c4ccc(CN5CC6(CCN(C(=O)c7cc(C)c(Cl)c(N8CCC(=O)NC8=O)c7)CC6(F)F)C5)cn4)cccc32)nn2c(C(=O)NCc3ncco3)cnc12 [I-1077]', 'TYK2 MSD OCI-LY10 Dmax %', 'B (B (90 to >75%))'),
  ('CNc1cc(N2CCc3c(-c4ccc(CN5CCC6(CC5)CN(C(=O)c5ccc(Cl)c(N7CCC(=O)NC7=O)c5)CC6(F)F)cn4)cccc32)nn2c(C(=O)N[C@@H]3C[C@@H]3F)cnc12 [I-847]', 'TYK2 MSD OCI-LY10 Dmax %', 'A (A (>90%))');
